Target: T1, human IL-2 receptor IL-2Rα/IL-2Rβ/γc on HEK-Blue IL-2 cells (UniProt P01589 22-272; P14784 27-551; P31785 23-369)
T1 chain 1: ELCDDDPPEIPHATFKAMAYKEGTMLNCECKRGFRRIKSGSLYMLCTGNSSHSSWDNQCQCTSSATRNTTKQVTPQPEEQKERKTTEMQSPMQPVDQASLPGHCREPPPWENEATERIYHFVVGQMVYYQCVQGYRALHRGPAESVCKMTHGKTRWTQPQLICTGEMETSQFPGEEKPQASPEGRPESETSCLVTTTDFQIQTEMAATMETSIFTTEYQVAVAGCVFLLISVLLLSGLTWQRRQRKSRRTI
T1 chain 2: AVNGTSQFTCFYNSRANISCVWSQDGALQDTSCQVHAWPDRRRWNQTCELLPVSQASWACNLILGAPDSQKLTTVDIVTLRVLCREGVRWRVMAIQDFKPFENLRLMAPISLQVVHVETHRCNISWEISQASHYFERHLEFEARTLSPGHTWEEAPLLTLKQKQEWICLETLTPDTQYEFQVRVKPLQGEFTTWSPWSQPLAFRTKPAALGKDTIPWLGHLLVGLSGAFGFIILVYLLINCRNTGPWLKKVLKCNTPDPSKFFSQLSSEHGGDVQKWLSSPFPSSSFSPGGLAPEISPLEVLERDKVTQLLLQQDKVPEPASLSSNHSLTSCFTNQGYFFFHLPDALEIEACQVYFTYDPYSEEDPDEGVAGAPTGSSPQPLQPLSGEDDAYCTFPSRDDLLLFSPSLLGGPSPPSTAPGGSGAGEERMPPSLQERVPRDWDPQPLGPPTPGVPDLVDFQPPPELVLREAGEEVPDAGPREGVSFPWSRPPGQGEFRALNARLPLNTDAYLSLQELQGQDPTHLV
T1 chain 3: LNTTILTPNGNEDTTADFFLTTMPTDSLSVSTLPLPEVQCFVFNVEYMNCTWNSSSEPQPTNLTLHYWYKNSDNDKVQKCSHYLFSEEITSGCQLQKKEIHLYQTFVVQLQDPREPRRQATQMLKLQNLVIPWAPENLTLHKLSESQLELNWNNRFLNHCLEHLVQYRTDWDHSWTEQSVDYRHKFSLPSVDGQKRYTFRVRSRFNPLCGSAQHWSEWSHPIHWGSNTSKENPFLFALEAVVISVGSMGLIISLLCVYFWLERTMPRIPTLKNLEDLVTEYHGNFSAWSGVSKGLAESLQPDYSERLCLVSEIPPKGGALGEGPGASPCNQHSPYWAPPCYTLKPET
Experiment: FACS cell binding; monovalent
measured metric: EC50 (nM)
Write the number in nM without appending the unit.

binder: 8-MP01C12 VHH-hFc, monospecific monovalent (Fc fusion) VHH: QVQLVESGGGLVQPGGSLRLSCATSGFTFSNNFMSWVRQAPGKGLEFVSTISYGGESTTYAEAVKGRFTISRDNAKNTLYLQMNNLKPEDTAIYYCAKATSYTSIRGAPRGQGTQVTVSS
EC50 [nM]: 2.7

binder: 7-MP01G08 VHH-hFc, monospecific monovalent (Fc fusion) VHH: EVQLVESGGGLVQAGGSLRLSCAASGRAFSMYNMGWFRQAPGKEREFVAATGWSGANTPYADSVKGRFTISRDNTQNTVYLQMNSLKPEDTATYYCAADSIRLRSDVTRIPLEYDYWGQGTQVTVSS
EC50 [nM]: 4.7

binder: 5-MP01F05 VHH-hFc, monospecific monovalent (Fc fusion) VHH: EVQLVESGGGLVQAGGSLRLSCAASIRAFTTWSMAWFRQAPGKEREYVARINVSGSVTYYADFVKGRFTISRDNAKKTMYLEMNNLKPEDTALYYCAADRTGVGTNDYNYWGQGTQVTVSS
EC50 [nM]: 9.2

binder: 6-MP01G05 VHH-hFc, monospecific monovalent (Fc fusion) VHH: QVQLQESGGGLVQAGGSLRLSCAASGRTFSSYAMGWFRQAPGKEREFVAVISWNVDNTEYTDSVKGRFTISRDNDKNMVYLQMNSLKPEDTAVYYCAADSIPLSSDMSPTATEYGYWGQGTQVTVSS
EC50 [nM]: 5.6

binder: 10-MP05F03 VHH-hFc, monospecific monovalent (Fc fusion) VHH: QVQLVESGGGLVQAGGSLRLSCAASGIPFDNYAMGWFRQAPGKEREFVAARDLEGIITRYGDSVKGRFTISRGNAKNTVFLQMNSLKPEDTAVYYCAARDGGVVAGSRSSAQYNYWGQGTQVTVSS
EC50 [nM]: 2

binder: 12-MP05B12 VHH-hFc, monospecific monovalent (Fc fusion) VHH: QVQLVESGGGLVQAGGSLRLSCAASGFTFDGYAIGWFRQAPGKEREGVSYITGSDGSTYYADSVKGRFTISSNNAKNTVYLHMNSLKPDDAAVYYCAIDRLGSRGAYVPIWWRSSDMDLWGKGTLVTVSS
EC50 [nM]: 8.5

binder: 4-MP01F04 VHH-hFc, monospecific monovalent (Fc fusion) VHH: QVQLVESGGGLVQAGGSLRLSCAASGGTFRTRNMGWFRRAPGKEREFVAAVSWNVDNKLYADSVKGRFTISRDNGRNMVYLQMNSLKPEDTAVYYCAADNIPLSSDMRPTATEYDYWGQGTQVTVSS
EC50 [nM]: 2.2

binder: 11-MP05H04 VHH-hFc, monospecific monovalent (Fc fusion) VHH: QLQLVESGGGLVQAGGSLRLSCAASGLTFEGYAIGWFRQAPGKEREGVSYITGSDGTTYYINSVKGRFTISSDNAKSTVYLQMNTLKPEDTAVYYCAVDRLGSQGRYASAWWRSGDMDLWGKGTQVTVSS
EC50 [nM]: 5.9

-- ask Find the recorded EC50 belonging to 1-MP01H01 VHH-hFc, monospecific monovalent (Fc fusion) VHH: EVQLVESGGGLVQAGGSLRLSCAASGRTFRTHNMGWFRRAPGKEREFVAAISWNVDNTLYADSVKGRFTISRDNGRNMVYLQMNSLKPEDTAVYYCAADNIPLSSDVAATATEYDYWGQGTQVTVSS and report it.
-- reply 135

-- ask What do we get for 13-MP05E12 (antibody, V domains shown) VH: QVQLQESGGGLVQAGDSLRLSCAASGFNFGWHAMGWFRQAPGKEREFVATITWTGRDTYYADSVRGRFTISKDNAKDTLFLQMNSLRPDDTGVYYCAKARERATWAYSEDDCDYWGQGTQVTVSS ?
-- reply 3.2

-- ask Request: 9-MP05G01 VHH-hFc, monospecific monovalent (Fc fusion) VHH: EVQLVESGGGLVQAGGSLRLSCAASGGSIYTYNMGWFRQAPGKEREFVAGTLWSGGDSVYADFAKGRFTLSRENAKNTLYLQMNSLKPEDTATYYCAIDPLSLTSDWRVDELSSWGKGTLVTVSS
-- reply 2.3

-- ask # iterate: 3-MP01E03 VHH-hFc, monospecific monovalent (Fc fusion) VHH: QVQLVESGGGLVQAGGSLRLSCTASGRTLSSYSMAWFRQAADKGREFVTAISSSGVVTHVLDSVKGRFTISRDNAKNTVYLQMNSLQPEDTALYFCAGTASSYSTYEANYNYWGQGTLVTVSS
-- reply 3.3
